System: (MRSA) 562
ASSAY: MIC, agar incorporation method
Format: cell-based, Staphylococcus aureus
CONDITION DESCRIPTION: S. No. 8, (MRSA) 562
READOUT KIND: MIC (µg/mL)
Report the figure in µg/mL without appending any unit label.

Please review the following examples before continuing.
[
  {
    "SMILES REPR": "O=C(NC[C@H]1CN(c2ccc(N3CCN(c4ccc([N+](=O)[O-])s4)CC3)c(F)c2)C(=O)O1)C(Cl)Cl",
    "NUMERIC READOUT": 1
  },
  {
    "SMILES REPR": "CC(=O)NC[C@H]1CN(c2ccc(N3CCN(c4cc(C(OC(C)=O)OC(C)=O)sc4[N+](=O)[O-])CC3)c(F)c2)C(=O)O1",
    "NUMERIC READOUT": 0.25
  }
]

input: Entry under review: CC(=O)NC[C@H]1CN(c2ccc(N3CCN(c4ccc([N+](=O)[O-])s4)CC3)cc2)C(=O)O1 . Reported MIC?
output: 1

====

The following molecules are listed with their measured MIC values.
Tested on: S. aureus (MRSA) ST450
ASSAY: MIC, agar incorporation method
Assay type: cell-based, Staphylococcus aureus
CONDITION DESCRIPTION: S. No. 6, S. aureus (MRSA) ST450
Report the figure in µg/mL without appending any unit label.

[
  {
    "SMILES REPR": "CC(=O)NC[C@H]1CN(c2ccc(N3CCN(c4cc(C(OC(C)=O)OC(C)=O)sc4[N+](=O)[O-])CC3)c(F)c2)C(=O)O1",
    "SYSTEM UNDER TEST": "S. aureus (MRSA) ST450",
    "MIC / µg/mL": 1
  },
  {
    "SMILES REPR": "CC(=O)NC[C@H]1CN(c2ccc(N3CCN(c4ccc([N+](=O)[O-])s4)CC3)cc2)C(=O)O1",
    "SYSTEM UNDER TEST": "S. aureus (MRSA) ST450",
    "MIC / µg/mL": 2
  }
]

input: Entry under review: O=C(NC[C@H]1CN(c2ccc(N3CCN(c4ccc([N+](=O)[O-])s4)CC3)c(F)c2)C(=O)O1)C(Cl)Cl . Reported MIC?
output: 1

====

Test system: M. tuberculosis 50
ASSAY: MIC against M. tuberculosis strains, agar dilution
Type: cell-based, Mycobacterium tuberculosis
CONDITION DESCRIPTION: S. No. 12 Mt-, Middle Brook 7H10 + OADC, 37° C., 14-21 days
READOUT KIND: MIC (µg/mL)
Report the figure in µg/mL without appending any unit label.

Please review the following examples before continuing.
[
  {
    "MOLECULE": "C[C@@H]1CN(c2c(F)c(N)c3c(=O)c(C(=O)O)cn(C4CC4)c3c2F)C[C@H](C)N1 [SPAR]",
    "MIC / µg/mL": 4.0
  },
  {
    "MOLECULE": "CC[C@H]1OC(=O)[C@H](C)[C@@H](O[C@H]2C[C@@](C)(OC)[C@@H](O)[C@H](C)O2)[C@H](C)[C@@H](O[C@@H]2O[C@H](C)C[C@H](N(C)C)[C@H]2O)[C@](C)(OC)C[C@@H](C)C(=O)[C@H](C)[C@@H](O)[C@]1(C)O [CLA]",
    "MIC / µg/mL": 16
  }
]

Moving on to another molecule below.
input: Entry under review: CCc1cc(C(N)=S)ccn1 [ETH] . Reported MIC?
output: 32

====

System: S. pneumoniae AB 21
ASSAY: MIC, agar incorporation method
Format: cell-based, Streptococcus pneumoniae
CONDITION DESCRIPTION: S. No. 41, S. pneumoniae AB 21
READOUT KIND: MIC (µg/mL)
Report the figure in µg/mL without appending any unit label.

input: Entry under review: C[C@H](Cl)C(=O)NCC1CN(c2ccc(N3CCN(c4ccc([N+](=O)[O-])s4)CC3)c(F)c2)C(=O)O1 (stereo partly shown) [Compound No. 7] . Reported MIC?
output: 1

====

Tested on: S. pneumoniae AB 21
ASSAY: MIC, agar incorporation method
Type: cell-based, Streptococcus pneumoniae
CONDITION DESCRIPTION: S. No. 41, S. pneumoniae AB 21
READOUT KIND: MIC (µg/mL)
Report the figure in µg/mL without appending any unit label.

[
  {
    "SMILES REPR": "O=C(NC[C@H]1CN(c2ccc(N3CCN(c4ccc([N+](=O)[O-])s4)CC3)c(F)c2)C(=O)O1)C(Cl)Cl",
    "MIC [µg/mL]": 0.25
  },
  {
    "SMILES REPR": "CC(=O)NC[C@H]1CN(c2ccc(N3CCN(c4ccc([N+](=O)[O-])s4)CC3)cc2)C(=O)O1",
    "MIC [µg/mL]": 0.5
  }
]

input: Entry under review: CC(=O)NC[C@H]1CN(c2ccc(N3CCN(c4cc(C(OC(C)=O)OC(C)=O)sc4[N+](=O)[O-])CC3)c(F)c2)C(=O)O1 . Reported MIC?
output: 0.5
